Values from the Human Domainome abundance scans (Beltran et al. 2025)

B1: Storkhead-box protein 2, residues 64 to 141; numbered along this chain, Q9P2F5 (parent)
chain: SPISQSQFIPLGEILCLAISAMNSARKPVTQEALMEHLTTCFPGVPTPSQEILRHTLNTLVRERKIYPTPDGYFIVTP

variants of: B1; experiment: abundance fitness (aPCA) (normalised: wild type 0, dead -1); higher = more abundant; growth selection in yeast, the domain comes from the species named; details: Homo sapiens
Record form. Attribute: abundance fitness. Fill in for each entry.
# output: bare number, no unit

I am curious: what abundance fitness value has been reported for `M22G` ? -0.257

Would you kindly repeat that for `L53A` ? -0.124

Would you kindly repeat that for `Q31H` ? -0.209

Would you kindly repeat that for `F42D` ? 0.273

Would you kindly repeat that for `Q50V` ? -0.131

Would you kindly repeat that for `S6D` ? 0.027

Would you kindly repeat that for `P78V` ? -0.182

Would you kindly repeat that for `G44Q` ? -0.055

Would you kindly repeat that for `F74D` ? -0.038

Would you kindly repeat that for `I3V` ? 0.001

Would you kindly repeat that for `M22S` ? -0.306

Would you kindly repeat that for `C41Y` ? -0.062

Would you kindly repeat that for `Y73Q` ? -0.078

Would you kindly repeat that for `N23S` ? -0.12

Would you kindly repeat that for `A33S` ? -0.001

Would you kindly repeat that for `E13R` ? 0.078

Would you kindly repeat that for `P68K` ? -0.082

Would you kindly repeat that for `L53W` ? -0.141

Would you kindly repeat that for `R26N` ? 0.023

Would you kindly repeat that for `S24W` ? -0.226

Would you kindly repeat that for `P46Q` ? -0.187

Would you kindly repeat that for `D71G` ? 0.018

Would you kindly repeat that for `V45N` ? -0.209

Would you kindly repeat that for `H55R` ? -0.055

Would you kindly repeat that for `H55G` ? 0.06

Would you kindly repeat that for `I52R` ? -0.086

Would you kindly repeat that for `I14W` ? -0.105

Would you kindly repeat that for `C16E` ? -0.148

Would you kindly repeat that for `I3E` ? 0.041

Would you kindly repeat that for `F74Q` ? 0.006

Would you kindly repeat that for `V61S` ? -0.008

Would you kindly repeat that for `S4F` ? -0.151

Would you kindly repeat that for `C41E` ? 0.004

Would you kindly repeat that for `T77G` ? -0.057

Would you kindly repeat that for `E32D` ? -0.088

Would you kindly repeat that for `A18S` ? -0.197

Would you kindly repeat that for `N23W` ? -0.31

Would you kindly repeat that for `T30A` ? -0.166

Would you kindly repeat that for `E51S` ? -0.039

Would you kindly repeat that for `E13S` ? -0.039

Would you kindly repeat that for `N23T` ? -0.144

Would you kindly repeat that for `K65Y` ? -0.154

Would you kindly repeat that for `T39D` ? 0.09

Would you kindly repeat that for `T30M` ? -0.102

Would you kindly repeat that for `D71K` ? 0.073

Would you kindly repeat that for `V76H` ? -0.114

Would you kindly repeat that for `S6I` ? -0.148

Would you kindly repeat that for `E63A` ? -0.019

Would you kindly repeat that for `Q50D` ? 0.118

Would you kindly repeat that for `L34E` ? -1.08

Would you kindly repeat that for `V45A` ? -0.088

Would you kindly repeat that for `L34A` ? -0.45

Would you kindly repeat that for `L11P` ? -0.299

Would you kindly repeat that for `L57D` ? -0.793

Would you kindly repeat that for `T47E` ? -0.199

Would you kindly repeat that for `N58W` ? -0.093

Would you kindly repeat that for `F8D` ? -0.027

Would you kindly repeat that for `T39W` ? -0.003

Would you kindly repeat that for `I52N` ? -0.46

Would you kindly repeat that for `R64N` ? -0.043

Would you kindly repeat that for `E32L` ? -0.117

Would you kindly repeat that for `I66R` ? -1.17

Would you kindly repeat that for `M35F` ? 0.04

Would you kindly repeat that for `N58P` ? -0.678

Would you kindly repeat that for `C41T` ? -0.105

Would you kindly repeat that for `T69N` ? -0.042

Would you kindly repeat that for `T69L` ? -0.195

Would you kindly repeat that for `M22P` ? -0.739

Would you kindly repeat that for `G72M` ? -0.209

Would you kindly repeat that for `E32T` ? 0.008

Would you kindly repeat that for `T77F` ? -0.073

Would you kindly repeat that for `Y67P` ? -0.566

Would you kindly repeat that for `G72L` ? -0.461

Would you kindly repeat that for `V61N` ? -0.432

Would you kindly repeat that for `P48M` ? -0.099

Would you kindly repeat that for `I3W` ? -0.44

Would you kindly repeat that for `T77Y` ? -0.084

Would you kindly repeat that for `E63T` ? -0.049

Would you kindly repeat that for `P48Y` ? -0.201

Would you kindly repeat that for `Y67R` ? 0.022

Would you kindly repeat that for `I9D` ? -0.035

Would you kindly repeat that for `H55W` ? -0.087

Would you kindly repeat that for `S4L` ? -0.026

Would you kindly repeat that for `S20N` ? 0.076

Would you kindly repeat that for `T59M` ? -0.023

Would you kindly repeat that for `R62D` ? -0.05

Would you kindly repeat that for `L17N` ? 0.079

Would you kindly repeat that for `K27Q` ? 0.064

Would you kindly repeat that for `I9A` ? 0.005

Would you kindly repeat that for `K65V` ? 0

Would you kindly repeat that for `F74A` ? 0.095
